The reported measurements were obtained from patent US5599791A.

Catalogue of molecules with associated MIC
System: Staph. aureus L165 Tour
ASSAY TEXT: MIC, microbroth dilution
Type: cell-based
CONDITION: inocula 10^4 to 10^5 CFU/ml, Iso-Sensitest broth, 18-24 h, 37° C.
Description: MIC for Propionibacterium aches, and Bacteroides fragilis are determined by agar dilution (inocula 10^4 /10^5 CFU/spot). MIC for other organisms are determined by microbroth dilution (inocula 10^4 to 10^5 CFU/ml). Incubation times are 18-24 h, except for Haemophilus influenzae, P. acnes, B. fragilis (48 h). All organisms are incubated at 37° C.; H. influenzae is incubated in a 5% CO2 atmosphere, anaerobes in an anaerobic gas mixture. […]
Return type: number; implicit unit microgram/ml.

CNC(=O)CC1NC(=O)c2nc(sc2COC)C(C(C)C)NC(=O)c2csc(n2)-c2ccc(-c3nc(C(=O)NC(CCSC)C(=O)O)cs3)nc2-c2csc(n2)-c2csc(n2)C(C(O)c2ccccc2)NC(=O)CNC(=O)c2nc1sc2C (stereo not shown) = 0.25
CNC(=O)CC1NC(=O)c2nc(sc2COC)C(C(C)C)NC(=O)c2csc(n2)-c2ccc(-c3nc(C(N)=O)cs3)nc2-c2csc(n2)-c2csc(n2)C(C(O)c2ccccc2)NC(=O)CNC(=O)c2nc1sc2C (stereo not shown) = 0.13
CNC(=O)CC1NC(=O)c2nc(sc2COC)C(C(C)C)NC(=O)c2csc(n2)-c2ccc(-c3nc(C(=O)NCCOCCC(=O)O)cs3)nc2-c2csc(n2)-c2csc(n2)C(C(O)c2ccccc2)NC(=O)CNC(=O)c2nc1sc2C (stereo not shown) = 0.25

Proceed to the following item.
Prompt line: Please report the measured MIC for CNC(=O)CC1NC(=O)c2nc(sc2COC)C(C(C)C)NC(=O)c2csc(n2)-c2ccc(-c3nc(C(=O)NCCN(C)C)cs3)nc2-c2csc(n2)-c2csc(n2)C(C(O)c2ccccc2)NC(=O)CNC(=O)c2nc1sc2C (stereo not shown) tested on Staph. aureus L165 Tour.
Response line: 0.5
